assay: The compound was tested in vitro for its anticoagulant potency (2x APTT) of human plasma; assay type: functional
measuredEndpoint: Concentration doubling APTT

INSERT INTO assay_data (smilesrepr, result) VALUES
  ('Cc1nc(N)ccc1CNC(=O)Cn1c(C)cc2c(c1=O)NC(=O)C(CC(C)C)(CC(C)C)C2', '390 nM'),
  ('Cc1nc(N)ccc1CNC(=O)Cn1c(C)cc2c(c1=O)NC(=O)[C@H](CC1CCC1)C2', '190 nM'),
  ('Cc1nc(N)ccc1CNC(=O)Cn1c(C)cc2c(c1=O)NC(=O)[C@H](CC(C)C)C2', '220 nM');

* * *

test: Half life was determined after oral administration at 1 mg/kg in dogs; assay type: ADME, organism-based, Canis lupus familiaris; parameters: dose 1 mg/kg, route oral; conditions: dog, in vivo
measuredEndpoint: half-life (min)

INSERT INTO measurements (smilesrepr, unitlabel, numericresult) VALUES
  ('Cc1nc(N)ccc1CNC(=O)Cn1c(C)cc2c(c1=O)NC(=O)[C@H](CC(C)C)C2', 'min', 141),
  ('Cc1nc(N)ccc1CNC(=O)Cn1c(C)cc2c(c1=O)NC(=O)[C@](C)(CC(C)C)C2', 'min', 90);

* * *

target: Prothrombin (Homo sapiens)
pKi: −log10 of the molar value.
measuredEndpoint: pKi

INSERT INTO assay_data (smilesrepr, numericresult) VALUES
  ('Cc1nc(N)ccc1CNC(=O)Cn1c(C)cc2c(c1=O)NC(=O)[C@H](CC1CC1)C2', 9.68);

* * *

experiment: Oral absorption kinetics (AUC) was determined after administration of compound orally at 1 mg/kg in dogs; assay type: ADME, organism-based, Canis lupus familiaris; set-up: dose 1 mg/kg, route oral; settings: dog, in vivo
AUC overview
measuredEndpoint: AUC (µM·h)

INSERT INTO results (smilesrepr, measuredendpoint, unitlabel, numericresult) VALUES
  ('Cc1nc(N)ccc1CNC(=O)Cn1c(C)cc2c(c1=O)NC(=O)[C@](C)(CC(C)C)C2', 'AUC', 'µM·h', 2.97),
  ('Cc1nc(N)ccc1CNC(=O)Cn1c(C)ccc(NS(=O)(=O)Cc2ccccc2)c1=O', 'AUC', 'µM·h', 4.42),
  ('Cc1nc(N)ccc1CNC(=O)Cn1c(C)cc2c(c1=O)NC(=O)[C@H](CC(C)C)C2', 'AUC', 'µM·h', 0.75);

* * *

system: Rattus norvegicus; experiment: Final plasma concentration when 10 ug/kg/min compound administered intravenously in rat; assay type: ADME, organism-based; settings: in vivo, iv, 0.01 mg/kg
concentration overview
measuredEndpoint: concentration (nM)

INSERT INTO measurements (smilesrepr, numericresult) VALUES
  ('Cc1nc(N)ccc1CNC(=O)Cn1c(C)cc2c(c1=O)NC(=O)[C@H](CC1CCC1)C2', 596),
  ('Cc1nc(N)ccc1CNC(=O)Cn1c(C)cc2c(c1=O)NC(=O)[C@H](CC(C)C)C2', 255);

* * *

pKi: −log10 of the molar value.
Observed pKi for Serine protease 1 (Homo sapiens, UniProt P07477), reported per entry below.
measuredEndpoint: pKi

INSERT INTO measurements (smilesrepr, measuredendpoint, numericresult) VALUES
  ('Cc1nc(N)ccc1CNC(=O)Cn1c(C)cc2c(c1=O)NC(=O)[C@H](CC1CC1)C2', 'pKi', 6.11),
  ('CCC[C@@H]1Cc2cc(C)n(CC(=O)NCc3ccc(N)nc3C)c(=O)c2NC1=O', 'pKi', 6.29),
  ('Cc1nc(N)ccc1CNC(=O)Cn1c(C)cc2c(c1=O)NC(=O)[C@H](CC1CCC1)C2', 'pKi', 6.38);
